Kindly state growth inhibition for each of the entries shown.
assay: NCI Yeast Anticancer Drug Screen. Data for the mlh1 rad18 strain (AID 175)
measurementSetup: S. cerevisiae mlh1 rad18 strain growth inhibition; at 50.0 µM; stronger effect = higher value
Procedure: Growth inhibition of yeast strains with defined genetic alterations is measured as a screen for potential anti-cancer activity. Selected strains with alterations in DNA damage repair or cell cycle control were exposed to compounds and growth inhibition was measured relative to vehicle treated controls. The strain used in this assay is mlh1 rad18
The panel holds about 79,000 compounds, 15% with a hit somewhere; the sample as a whole holds those more often. The source made the active and inactive calls. Cut-off read from the data, not from the text of the source: active = growth inhibition above about 70%; inactive = the rest.

Q: I'd like to know its growth inhibition. The compound in question is CC1(C)C2CC3C(CCC4C(=O)OC(=O)C43)C1C2 (configuration not stated)
A: -2.35% (inactive)

Q: I'd like to know its growth inhibition. The compound in question is O=C1OCc2c1cc1cc3c(cc1c2-c1ccc2c(c1)OCO2)OCO3
A: 3.85% (inactive)

Q: I'd like to know its growth inhibition. The compound in question is Cn1c2ccccc2c2ccc3c(c21)C(=O)C(c1ccccc1)=CC3=O
A: -5.85% (inactive)

Q: I'd like to know its growth inhibition. The compound in question is CC(C)(C)c1cc2ccc(C(N)=O)cc2c(=O)[nH]1
A: -4.95% (inactive)

Q: I'd like to know its growth inhibition. The compound in question is CC(COc1ccccc1)OC(=O)CCl (configuration not stated)
A: 27.6% (inactive)

Q: I'd like to know its growth inhibition. The compound in question is O=C1NC2(CCCCC2)C(=O)N1CCN1C(=O)NC2(CCCCC2)C1=O
A: -10.5% (inactive)

Q: I'd like to know its growth inhibition. The compound in question is COC(=O)c1c(C(=O)OC)c2ccccn2c1-c1cc(OC)c(Br)c(=O)o1
A: -105% (inactive)

Q: I'd like to know its growth inhibition. The compound in question is CCN(CC)c1nc(Cl)nc(C(N)=O)c1N
A: -10.4% (inactive)

Q: I'd like to know its growth inhibition. The compound in question is NC(=O)NCCSC1CCCCC1O (configuration not stated)
A: 6.45% (inactive)

Q: I'd like to know its growth inhibition. The compound in question is COc1ccc(N=Cc2ccc(C=Nc3ccc(OC)cc3)cc2)cc1
A: 19.9% (inactive)

Q: I'd like to know its growth inhibition. The compound in question is O=C(Nc1ccc(Br)cc1)Oc1ccc(Cl)cc1C(=O)c1ccccc1
A: 20.5% (inactive)

Q: I'd like to know its growth inhibition. The compound in question is Nc1ccnn2c(-c3ccccc3)nnc12
A: 2.35% (inactive)
